# PROCEDURE_TEXT: Selectivity ratio of inhibition for PDE3A (M1 to Q1141 residues) (unknown origin) by RF-MS assay to inhibition for PDE3B (M1 to E1112 residues) (unknown origin) by RF-MS assay
OUTCOME_MEASURE: Selectivity ratio

* CNC(=O)[C@@H](NC(=O)c1cc(NC(=O)c2cnc3ccccc3c2)cc(B(O)O)c1)C1CCCCC1 | 0.9

I = CNC(=O)[C@@H](NC(=O)c1cc(NC(=O)c2cc(OC)c3cc(OC)ccc3n2)cc(B(O)O)c1)C1CCCCC1
II = COc1ccc2c(OC)cc(C(=O)Nc3cc(B(O)O)cc(C(=O)N[C@@H](C(N)=O)C(C)C)c3)nc2c1
III = CNC(=O)[C@H](NC(=O)c1cc(NC(=O)c2cc(C)cc(C)c2OC)cc(B(O)O)c1)C1CCCCC1
Request: Write the entries in order, lowest recorded Selectivity ratio first. Returns: the labels listed in the requested order.
Result: I, III, II
